- EXPERIMENTAL_SYSTEM: Polyphenol oxidase 2 (Agaricus bisporus, UniProt O42713)
- Sequence (O42713 whole entry): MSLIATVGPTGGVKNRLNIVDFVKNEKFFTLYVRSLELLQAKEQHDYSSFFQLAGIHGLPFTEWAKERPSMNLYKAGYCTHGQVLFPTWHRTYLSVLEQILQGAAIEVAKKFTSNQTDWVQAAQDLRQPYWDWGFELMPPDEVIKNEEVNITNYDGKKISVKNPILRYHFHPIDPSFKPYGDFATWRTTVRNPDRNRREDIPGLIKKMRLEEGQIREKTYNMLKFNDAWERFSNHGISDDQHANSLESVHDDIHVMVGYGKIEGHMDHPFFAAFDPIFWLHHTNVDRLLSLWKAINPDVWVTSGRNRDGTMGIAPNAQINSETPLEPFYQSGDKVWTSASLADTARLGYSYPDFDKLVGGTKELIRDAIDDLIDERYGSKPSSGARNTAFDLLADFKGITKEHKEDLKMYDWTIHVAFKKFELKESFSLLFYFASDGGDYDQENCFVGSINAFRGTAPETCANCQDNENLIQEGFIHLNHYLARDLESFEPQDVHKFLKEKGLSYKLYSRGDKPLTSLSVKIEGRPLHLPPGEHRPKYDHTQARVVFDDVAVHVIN
ENDPOINT_NAME: Ki (nM)

- NC(=S)c1ccncc1: 22300
- CCCc1cc(C(N)=S)ccn1: 2400
- CCc1cc(C(N)=S)ccn1: 1900
- NC(=S)c1ccccn1: 2700
- NC(=S)c1cccnc1 [thionicotinamide]: 4300
- NC(=S)c1ccccc1: 700
